Values compiled from ChEMBL document CHEMBL1157938.

Form field: GI50 at 48 h (one value per entry).
- assayProcedure: Cytotoxicity against human MRC5 cells after 48 hrs by WST8 assay
- Format: cell-based
Hi! Could you send only the number? It should be in µM, unit omitted.

C/C=C(/C)C(=O)O[C@H]1[C@H](OC(=O)/C(C)=C\C)[C@]2(CO)[C@H](O)C[C@]3(C)C(=CC[C@@H]4[C@@]5(C)CC[C@H](O[C@@H]6O[C@H](C(=O)O)[C@@H](O)[C@H](O[C@@H]7O[C@@H](CO)[C@H](O)[C@H]7O)[C@H]6O[C@@H]6O[C@H](CO)[C@H](O)[C@H](O)[C@H]6O)C(C)(C)[C@@H]5CC[C@]43C)[C@@H]2CC1(C)C
7.43

input: Given the entry C/C=C(/C)C(=O)O[C@H]1[C@H](O)[C@]2(CO)[C@H](O)C[C@]3(C)C(=CC[C@@H]4[C@@]5(C)CC[C@H](O)[C@](C)(CO)[C@@H]5CC[C@]43C)[C@@H]2CC1(C)C , report its measured GI50 at 48 h.
output: 18.1

input: Given the entry C/C=C(/CC)C(=O)O[C@H]1[C@H](OC(C)=O)[C@]2(CO)[C@H](O)[C@H](O)[C@]3(C)C(=CC[C@@H]4[C@@]5(C)CC[C@H](O[C@@H]6O[C@H](C(=O)O)[C@@H](O)[C@H](O[C@@H]7OC[C@H](O)[C@H](O)[C@H]7O)[C@H]6O[C@@H]6O[C@H](CO)[C@@H](O)[C@H](O)[C@H]6O)C(C)(C)[C@@H]5CC[C@]43C)[C@@H]2CC1(C)C , report its measured GI50 at 48 h.
output: 3.54

input: Given the entry C/C=C(\C)C(=O)O[C@H]1[C@H](OC(=O)/C(C)=C/C)[C@]2(CO)[C@H](O)[C@H](O)[C@]3(C)C(=CC[C@@H]4[C@@]5(C)CC[C@H](O[C@@H]6O[C@H](C(=O)O)[C@@H](O)[C@H](O[C@@H]7O[C@@H](CO)[C@H](O)[C@H]7O)[C@H]6O[C@@H]6O[C@H](CO)[C@@H](O)[C@H](O)[C@H]6O)[C@](C)(CO)[C@@H]5CC[C@]43C)[C@@H]2CC1(C)C [AESCULIOSIDE IIID] , report its measured GI50 at 48 h.
output: 9.01

input: Given the entry C/C=C(/C)C(=O)O[C@H]1[C@H](OC(=O)C(C)CC)[C@]2(CO)[C@H](O)C[C@]3(C)C(=CC[C@@H]4[C@@]5(C)CC[C@H](O)C(C)(C)[C@@H]5CC[C@]43C)[C@@H]2CC1(C)C (stereo not given in full) , report its measured GI50 at 48 h.
output: 3.67
